Test system: PPARg:RXRa (NR concentration 180 nM, RXRa partner concentration 90 nM)
Assay: PBM binding z-score (relative to random genomic background probes); higher = stronger binding; sequences stand for … in GC…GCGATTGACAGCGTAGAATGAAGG
The reader will find reported PBM binding z-score values listed item by item below.
Measured metric: PBM binding z-score

[[record]]
record_sequence = "AGAACGAGGGCGCGCTGAGTTGATAGCAGAGTAG"
data_value = 0.362

[[record]]
record_sequence = "CGTCAAAGTTCAGCTAAGGTAACGTAAAGCACGC"
data_value = 3.16

[[record]]
record_sequence = "CCTAGTGGGCCAAAAAGGTCATTGATGCCGATAA"
data_value = 3.16

[[record]]
record_sequence = "GCAGACAGGTGAAACGCAGCTAACTCAGGGTGGC"
data_value = 0.371

[[record]]
record_sequence = "TCATATAGGTACTACAGGTGAAAGTCGGCATCTA"
data_value = 0.768

[[record]]
record_sequence = "AGAACGAGGGCCATGAGTTGATAGCACGGGTGGC"
data_value = 0.614

[[record]]
record_sequence = "ATCGAAAGGTCGTGGGGTGAGTATACAGAAAGGC"
data_value = 5.25

[[record]]
record_sequence = "CGAACTAGGTCAGAACAGGACAGTGATGGATGAT"
data_value = 5.11

[[record]]
record_sequence = "TCTATAAGTTGAAGGGCAACCGACGAGTCCGTTT"
data_value = 0.844

[[record]]
record_sequence = "GCTGCTAGGTCAGGTTGGTCAGCTGACGGGTACG"
data_value = 0.207

[[record]]
record_sequence = "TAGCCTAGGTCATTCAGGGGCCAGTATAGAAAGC"
data_value = 1.97

[[record]]
record_sequence = "TCATATAGGTAAAAAGGTGAAAGTCCGTAAGTTA"
data_value = 3.87


====

Test system: THRa:RXRa (NR concentration 90 nM, RXRa partner concentration 90 nM)
Test: PBM binding z-score (relative to random genomic background probes); higher = stronger binding; sequences stand for … in GC…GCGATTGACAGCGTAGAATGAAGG
Below, each entry is listed alongside its reported PBM binding z-score.
Measured metric: PBM binding z-score

[[record]]
record_sequence = "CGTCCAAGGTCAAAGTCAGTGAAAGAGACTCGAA"
data_value = 3.5

[[record]]
record_sequence = "CCTTACGGGTCACTGACAGGTTATAGTATTTGGA"
data_value = 3.04

[[record]]
record_sequence = "TCATATAGGTAAACAGGTGTAAGTCCGTAAGTTA"
data_value = 0.356

[[record]]
record_sequence = "ACTATTAGTTCAGACGAGGGCAACCGATAGGTTG"
data_value = 4.09

[[record]]
record_sequence = "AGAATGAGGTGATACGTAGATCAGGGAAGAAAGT"
data_value = 1.57

[[record]]
record_sequence = "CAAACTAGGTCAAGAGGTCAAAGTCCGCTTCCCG"
data_value = 4.44

[[record]]
record_sequence = "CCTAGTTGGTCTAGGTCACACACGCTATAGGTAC"
data_value = 2.99

[[record]]
record_sequence = "CTCGAAATGTCGGTTGAGGTGAGTATACGGATAA"
data_value = 3.31

[[record]]
record_sequence = "ATAGCAAGGTGATCGTGAGGTCGTTGATACTAAC"
data_value = 3.2

[[record]]
record_sequence = "AGAATGAGGTTACGAAAGATCAGGGAAACGCTTG"
data_value = 2.89

[[record]]
record_sequence = "TCTGTTAGTTGAAGGGCAACCGACGAGTCCGTTT"
data_value = 0.412

[[record]]
record_sequence = "ACAGACAGGTGAGTGAAGGTAACTCTGCTGGACG"
data_value = 1.52


====

Tested on: RARa homodimer (NR concentration 270 nM)
Assay: PBM binding z-score (relative to random genomic background probes); higher = stronger binding; sequences stand for … in GC…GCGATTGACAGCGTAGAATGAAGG
Measured metric: PBM binding z-score

[[record]]
record_sequence = "CAAACTAGGTCAAGAAAGGTCAAAGTCGAATGAC"
data_value = 3.23

[[record]]
record_sequence = "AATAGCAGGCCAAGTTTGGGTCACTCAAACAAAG"
data_value = -0.848

[[record]]
record_sequence = "CATACAGGGGCAGCTAGGCCAGAGTAGGGACGGC"
data_value = 0.188

[[record]]
record_sequence = "TCGAGTAGCTTAGTCGGGGCATTCAGCCAACATA"
data_value = -0.83

[[record]]
record_sequence = "TTACCAAGGTGAGCTGACGTCGTTGATCCAACTC"
data_value = -1.03

[[record]]
record_sequence = "CTCGAAAGATCGGTTGAGGTGAGTATACGGATAA"
data_value = -0.222

[[record]]
record_sequence = "ACTATTAGTTGACTTAGGGCAACGGATACGACGC"
data_value = 0.0802

[[record]]
record_sequence = "ACAGACAGGAGAGTGAAGGTAACTCAGCTGGACG"
data_value = 0.297

[[record]]
record_sequence = "CCTATTGGGCCATTCAGAGGTCATTGATCATATG"
data_value = 0.541

[[record]]
record_sequence = "AGAACGAGCGCAATGAGTTGATAGCACGGGTGGC"
data_value = -0.49

[[record]]
record_sequence = "TCATATAGGTAAAAGGTGAGAGTCGGTGTGGTAA"
data_value = 1.17

[[record]]
record_sequence = "CGTCCAAGGTCAAGGTCAGTTAAAGAGACTCGAA"
data_value = 1.83


====

System: PPARg homodimer (NR concentration 180 nM)
Assay: PBM binding z-score (relative to random genomic background probes); higher = stronger binding; sequences stand for … in GC…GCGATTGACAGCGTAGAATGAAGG
Measured metric: PBM binding z-score

[[record]]
record_sequence = "CTACCAAGGTGAACCAGGTCGTTGATTACTATTC"
data_value = 1.51

[[record]]
record_sequence = "CGTCCAAGGTCAATGTCAGTGAAAGAGACTCGAA"
data_value = 2.27

[[record]]
record_sequence = "CCTTACGGGTCACGAGGTTATAGGACGACGAGCG"
data_value = 1.95

[[record]]
record_sequence = "GCTCGGAGGATAAGGTCAGAGCTTTGTCCGTAGA"
data_value = 0.565

[[record]]
record_sequence = "ATCTGTAGGTAACCAAGTTCAGTGAATGCCGAAC"
data_value = 0.414

[[record]]
record_sequence = "CAAACTAGGTCACCGGAAGGTGAAAGTCCGCATG"
data_value = 4.64

[[record]]
record_sequence = "GCTAGTTGGTCAGCAAAAGGTCACACACCGGTCG"
data_value = 4.56

[[record]]
record_sequence = "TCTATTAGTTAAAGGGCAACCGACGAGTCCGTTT"
data_value = 1.7

[[record]]
record_sequence = "GCGACTGGGGTAAAGCAGGTTACCATAAGGTTGG"
data_value = -0.0118

[[record]]
record_sequence = "CCGACTGGGGCAGAAAGGTTACCATACCATCCGG"
data_value = 1.04

[[record]]
record_sequence = "AGTCAAAGTTCACTAGATAACGTAAGATTCAGCT"
data_value = 2.06

[[record]]
record_sequence = "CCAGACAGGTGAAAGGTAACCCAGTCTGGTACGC"
data_value = 0.618

[[record]]
record_sequence = "TCGAGCAGGTTACCAATGGGGCATTCAGCTTTCT"
data_value = -0.591

[[record]]
record_sequence = "TCGAGTAGGTCAGGGGCATTCAGAATGGCGTCGA"
data_value = 1.33

[[record]]
record_sequence = "CCTGCTAGGTCAATGGTGAGCTAAAGCAGCTCGC"
data_value = 0.822

[[record]]
record_sequence = "ACTAGCATGCCAAGGGTCACTCAAGATTAGTCCG"
data_value = 2.73

[[record]]
record_sequence = "TCTTGTAGATCAGCAGGTTAATAAAGCTGGCCAA"
data_value = -0.332

[[record]]
record_sequence = "CTCGAAAGGTCGGTTGAGGTGAGTGTACGGATAA"
data_value = 1.07

[[record]]
record_sequence = "TCAAATAGGTAATACAGGTGAAAGTCGGCATCTA"
data_value = 0.815

[[record]]
record_sequence = "ATCTCTAGGTAACCAAGTTCAGAGAATGCCGAAC"
data_value = 0.879

[[record]]
record_sequence = "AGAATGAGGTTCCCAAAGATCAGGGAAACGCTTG"
data_value = 0.224

[[record]]
record_sequence = "CAAACTAGGTCAAAGATCAAAGTCGAGCCAACCA"
data_value = 1.76

[[record]]
record_sequence = "CAGCCTAGGTCTGGGCCAGTATAGGAGGAACGTT"
data_value = -0.842

[[record]]
record_sequence = "TCATATAGGTAAACAGGTCAAAGTCCGTAAGTTA"
data_value = 2.44

[[record]]
record_sequence = "AGTCAAAGCTCAGGACGAGGTAACGTAAAGCACG"
data_value = 0.053

[[record]]
record_sequence = "ATCTCTAGGTGACAAGTTCAGTGAAAGAGAGGAC"
data_value = 0.963

[[record]]
record_sequence = "TGAATGAGGTTATAAGATCACGGAACGTTGCAAA"
data_value = 0.335

[[record]]
record_sequence = "TCGAGTAGATTAGTCGGGGCATTCAGCCAACATA"
data_value = -0.53

[[record]]
record_sequence = "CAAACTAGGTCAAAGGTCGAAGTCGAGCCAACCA"
data_value = 3.95

[[record]]
record_sequence = "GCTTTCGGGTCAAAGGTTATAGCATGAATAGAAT"
data_value = 1.81

[[record]]
record_sequence = "TCTTATAGATCAACAGGAGGTTAAGAAAGATCGA"
data_value = 0.452

[[record]]
record_sequence = "CCTGCTAGGTCATGGTCCGCTAATCTACAGTATG"
data_value = 0.575

[[record]]
record_sequence = "ATCGAAAGGTCGAGGTGAGTACAGAGAAAGGGAA"
data_value = 1.64

[[record]]
record_sequence = "GCATATAGGTAATACAAGGAGAAAGTCCGATTGT"
data_value = -0.266

[[record]]
record_sequence = "ACTAGCCGGCCAAGGGTCACTCAAGATTAGTCCG"
data_value = 0.922

[[record]]
record_sequence = "CGTCCACGGTCAAAGGTCAGTGAAGAGATGACGG"
data_value = 6.23

[[record]]
record_sequence = "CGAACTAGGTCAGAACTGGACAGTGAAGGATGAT"
data_value = 1.37

[[record]]
record_sequence = "ACTATTAGTTGAGACGAGGGCTACCGATAGGTTG"
data_value = -0.361

[[record]]
record_sequence = "GCGATTGGGGCATCAGCAGGTTACCATAACTTAA"
data_value = 0.245

[[record]]
record_sequence = "TGTAGCAGGCCAGAGGGTCACTCAAGAGGTACGG"
data_value = 0.876

[[record]]
record_sequence = "CCGACTGGGGCAAAGGATACCATACTCAGTACGA"
data_value = 0.339

[[record]]
record_sequence = "GCTGCTAGGTCAACTGATTGTCAGCTAAAGCTCG"
data_value = 0.898

[[record]]
record_sequence = "CCCACTGGGCCAAAAAGGTCATTGATGCCGATAA"
data_value = 3.72

[[record]]
record_sequence = "CGAACTAGGTCAGCCAGGACAGTGAATACATTGA"
data_value = 1.34

[[record]]
record_sequence = "CCTTACGGGTCACTGACAGGTTATAGCCTTTGGA"
data_value = 3.2

[[record]]
record_sequence = "CCTTACGTGTCACGAGGTTATAGCACGACGAGCG"
data_value = 1.81

[[record]]
record_sequence = "CCTACTAGGCCACGAAAGGTCATTGATTCAGTGA"
data_value = 3.43

[[record]]
record_sequence = "CCTACTGGGCGAAAGGTCATTGATTCCAATGCTC"
data_value = 2.89

[[record]]
record_sequence = "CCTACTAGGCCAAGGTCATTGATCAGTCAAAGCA"
data_value = 1.67

[[record]]
record_sequence = "ATCTCGAGGTAAAGTTCAGTGAAAGATCGATAGA"
data_value = 1.21

[[record]]
record_sequence = "CAAACTAGGTCAAAGGTCATAGTCGAGCCAACCA"
data_value = 5.55

